# subject of test: UniProt Q72547
# protocol details: Inhibition of HIV1 RT at 200 uM
Calls of active or inactive are those of the source. The calls are words filed in the database; no cut-off is given here.
property: Activity

# example entries with known answers
CCC[C@@H](O)C1=C(Br)/C(=C/Br)OC1=O | inactive
CCC[C@@H](OC(C)=O)C1=C(Br)[C@](OC)(C(Br)Br)OC1=O | inactive
CCC[C@@H](O)C1=C(Br)/C(=C\Br)OC1=O [HYDROXYFIMBROLIDE] | inactive
CCCCC1=C(Br)C(OC)(C(Br)Br)OC1=O (stereo not given) | inactive
CCC[C@@H](OC(C)=O)C1=C(Br)/C(=C/Br)OC1=O | inactive

Give me measured Activity, please, for this molecule: "CCC[C@@H](OC(C)=O)C1=C(Br)[C@@](CI)(OC)OC1=O"
inactive

Given the molecule "CCC[C@@H](O)C1=C(Br)[C@](CI)(OC)OC1=O" , write its reported Activity.
inactive

Give the reported Activity for this molecule. "CCC[C@@H](OC(C)=O)C1=C(Br)[C@](C)(OC)OC1=O"
inactive

Answer with the recorded Activity for the molecule listed here: "CCC[C@@H](OC(C)=O)C1=C(Br)[C@@](OC)(C(Br)Br)OC1=O"
inactive

Report Activity, nothing else, for this molecule: "CCC[C@@H](OC(C)=O)C1=C(Br)[C@@](C)(OC)OC1=O"
inactive

====

# System: Bacillus subtilis
# protocol details: Antimicrobial activity against Bacillus subtilis at 10 ug
# Type: functional, organism-based
Active and inactive are the calls of the source. The rule behind the calls is not given here.
property: Activity

Would you please look over these solved cases?
CCC[C@@H](OC(C)=O)C1=C(Br)[C@@](CI)(OC)OC1=O | inactive
CCCCC1=C(Br)C(=C(Br)Br)OC1=O | Active
CCC[C@@H](O)C1=C(Br)C(=C(Br)Br)OC1=O | Active
CCC[C@@H](O)C1=C(Br)/C(=C/Cl)OC1=O | Active

Retrieve Activity measured for "CCC[C@@H](OC(C)=O)C1=C(Br)/C(=C/I)OC1=O" and print it.
Active

Give the measured Activity for "CCC[C@@H](O)C1=C(Br)/C(=C/Br)OC1=O"
Active

====

# Tested on: Bacillus subtilis
# protocol details: Antimicrobial activity against Bacillus subtilis at 1 ug
# Type: functional, organism-based
Active and inactive are the calls of the source. The rule behind the calls is not given here.
property: Activity

Some entries whose results are on file:
CCC[C@@H](O)C1=C(Br)[C@](CI)(OC)OC1=O | inactive
CCC[C@@H](O)C1=C(Br)[C@@](CI)(OC)OC1=O | inactive
CCC[C@@H](OC(C)=O)C1=C(Br)/C(=C/I)OC1=O | Active
CCC[C@@H](O)C1=C(Br)/C(=C/Cl)OC1=O | Active
CCCCCCC(=O)C(Br)=C(Br)Br | inactive
CCC[C@@H](O)C1=C(Br)/C(=C/I)OC1=O | inactive
CCCCC1=C(Br)/C(=C/Br)OC1=O | inactive
CCC(CCC(=O)C(Br)=C(Br)Br)OC(C)=O (configuration not stated) | inactive
CCC[C@@H](O)C1=C(Br)C(=C(Br)Br)OC1=O | Active
CCC[C@@H](OC(C)=O)C1=C(Br)[C@](C)(OC)OC1=O | inactive

In one line, give reported Activity of the entry "CCC[C@@H](OC(C)=O)C1=C(Br)[C@@](OC)(C(Br)Br)OC1=O" .
inactive

// Input: "CCC[C@@H](OC(C)=O)C1=C(Br)[C@@](CI)(OC)OC1=O" . Output its Activity only.
inactive
